For each record, write down the corresponding GI50.
Test system: NCI-H460
assayProtocol: NCI tumour cell line growth inhibition, 48 h
The source made the active and inactive calls. Cut-off read from the data, not from the text of the source: active = GI50 up to about 1.1 µM and inactive = higher.

Inquiry: Please supply the value of reported GI50 for the item Clc1c(C(Cl)(Cl)Cl)nsc1N1CCCCC1
Reply text: 33.6 µM (inactive)

Inquiry: Tell us which GI50 value is on record for Cc1cccc(N(CC(=O)O)S(=O)(=O)c2ccccc2)c1
Reply text: > 100 µM (inactive)

Inquiry: Query GI50 for CCOc1ccc(NC(=O)C(=O)CC(=O)c2c[n+]([O-])c3cc(C)c(C)cc3[n+]2[O-])cc1
Reply text: > 100 µM (inactive)

Inquiry: Give GI50 for O=C(OCc1ccccc1)N1CCCc2c(n(S(=O)(=O)c3ccccc3)c3ccccc23)C1
Reply text: > 100 µM (inactive)

Inquiry: Return value of GI50 for input O=C1CCc2ccc3c(c21)CC1(Cc2ccccc2C1)C3 , no commentary.
Reply text: 2.57 µM (inactive)
